Provide the reported EC50 of each item.
system: HCV 2a JFH-1 Rluc cells (dicistronic genotype 2a JFH-1 replicon, RLuc reporter); assay: microbe, parasite or virus in culture; assay type: cell-based; settings: Hepatitis C virus, 72 h, Table 2; genotype 2a JFH-1 replicon, 72 hours; read-out: 2a JFH

The measured EC50 associated with COC(=O)N[C@H](C(=O)N1CCC[C@H]1c1ncc(-c2ccc3cc(-c4ccc(-c5cnc([C@@H]6CCCN6C(=O)[C@H](NC(=O)OC)c6ccccc6)[nH]5)cc4)ccc3c2)[nH]1)C(C)C reads 0.001 to 0.999 nM

Data point: COC(=O)NC(C(=O)N1CCC[C@H]1c1ncc(-c2ccc(-c3ccc4c(ccc5nc([C@@H]6[C@H]7CC[C@H](C7)N6C(=O)[C@@H](NC(=O)OC)C6CCOCC6)[nH]c54)c3)cc2)[nH]1)C(C)C (stereo partly drawn) ; EC50 = 0.001 to 0.999 nM

Recorded EC50 (compound COC(=O)N[C@H](C(=O)N1CCC[C@H]1c1ncc(-c2ccc3c(c2)CCc2cc(-c4ccc5nc([C@@H]6[C@H]7CC[C@H](C7)N6C(=O)[C@H](NC(=O)OC)c6ccccc6)[nH]c5c4)ccc2-3)[nH]1)C1CCOCC1 ): 0.001 to 0.999 nM

====

Give EC50 for every item shown.
system: HCV 1a RLuc cells (dicistronic genotype 1a H77 replicon, RLuc reporter); assay: microbe, parasite or virus in culture; type: cell-based; conditions: Hepatitis C virus, genotype 1a H77 RLuc replicon; read-out: 1a

Query CCO[C@H]1C[C@@H](c2nc3ccc4cc5c(cc4c3[nH]2)OCc2cc(-c3cnc([C@@H]4CCCN4C(=O)[C@@H](NC(=O)OC)C(C)C)[nH]3)ccc2-5)N(C(=O)[C@@H](NC(=O)OC)C(C)C)C1 yields EC50 of 0.001 to 0.999 nM

get_value(item= COC[C@H]1C[C@@H](c2nc3c([nH]2)-c2cc4c(cc2CC3)-c2ccc(-c3cnc([C@@H]5CCCN5C(=O)[C@@H](NC(=O)OC)C(C)C)[nH]3)cc2CO4)N(C(=O)[C@H](NC(=O)OC)c2ccccc2)C1 , readout=EC50) returns 0.001 to 0.999 nM

Looking up COC[C@H]1CC[C@@H](c2ncc(-c3cc4c5c(c3)OCc3cc(-c6cnc([C@@H]7CC[C@H](COC)N7C(=O)[C@@H](NC(=O)OC)C(C)C)[nH]6)cc(c3-5)OC4)[nH]2)N1C(=O)[C@@H](NC(=O)OC)C(C)C , I found its EC50 recorded as 0.001 to 0.999 nM

// COC(=O)N[C@H](C(=O)N1C[C@@H](C)C[C@H]1c1ncc(-c2cc3c4c(c2)OCc2cc(-c5cnc([C@@H]6C[C@H](C)CN6C(=O)[C@H](NC(=O)C6C(C)(C)C6(C)C)c6ccccc6)[nH]5)cc(c2-4)OC3)[nH]1)C(C)C : EC50 value = 0.001 to 0.999 nM

So for COC[C@H]1C[C@@H](c2nc3ccc4cc5c(cc4c3[nH]2)OCc2cc(-c3cnc([C@@H]4CCCN4C(=O)[C@@H](NC(=O)OC)C(C)C)[nH]3)ccc2-5)N(C(=O)[C@H](N)c2ccccc2)C1 , the logged EC50 turned out to be 0.001 to 0.999 nM
